test: Binding affinity to microtubule
measureName: pKd
Please report pKd as the negative decimal logarithm of the molar concentration, giving only the number.

Sample answers from the record:
- compound: "C=C/C=C\\[C@H](C)[C@H](OC(N)=O)[C@@H](C)[C@H](O)[C@@H](C)C/C(C)=C\\[C@H](C)[C@@H](O)[C@@H](C)/C=C\\[C@@H](O)C[C@@H]1OC(=O)[C@H](C)[C@@H](O)[C@H]1C [DISERMOLIDE]"
  pKd: 9.74
- compound: "CC(=O)O[C@H]1C(=O)[C@]2(C)[C@@H](OC(=O)[C@H](C)NC(=O)c3ccc(-c4c5cc(F)c(=O)cc-5oc5cc(O)c(F)cc45)c(C(=O)O)c3)C[C@H]3OC[C@@]3(OC(C)=O)[C@H]2[C@H](OC(=O)c2ccccc2)[C@]2(O)C[C@H](OC(=O)[C@H](O)[C@@H](NC(=O)c3ccccc3)c3ccccc3)C(C)=C1C2(C)C"
  pKd: 7.85
- compound: "CC(=O)O[C@H]1C(=O)[C@@]2(C)[C@H]([C@H](OC(=O)c3ccccc3)[C@]3(O)C[C@H](OC(=O)[C@H](O)[C@@H](NC(=O)c4ccccc4)c4ccccc4)C(C)=C1C3(C)C)[C@]1(OC(C)=O)CO[C@@H]1C[C@@H]2O"
  pKd: 7.15
- compound: "C/C(=C\\c1csc(C)n1)[C@@H]1C[C@@H]2O[C@]2(C)CCC[C@H](C)[C@H](O)[C@@H](C)C(=O)C(C)(C)[C@@H](O)CC(=O)O1"
  pKd: 8.89
- compound: "C/C(=C\\c1csc(C)n1)[C@@H]1C[C@@H]2O[C@@H]2CCC[C@H](C)[C@H](O)[C@@H](C)C(=O)C(C)(C)[C@@H](O)CC(=O)O1"
  pKd: 7.55

# next compound below
### Prompt Look up pKd: "CC1=C[C@H]2[C@@H](O)[C@H](C)[C@@H](O)[C@@H]2[C@H]2[C@@H]3C4=C5O[C@](C)(CC[C@@H](OC4=O)[C@H]5C)[C@@H]3C[C@@H]12"
### Response 7.31
